ASSAY TEXT: in vivo
CONDITIONS USED: Wistar, rat, iv, 1 mg/kg
READOUT: clearance (mL/min/kg)

# MOLECULE, UNITS LABEL, OBSERVED VALUE
measured = [
    ("CC(C)c1nc(C(=O)NCC2C3CN(C4CCOCC4)CC23)n2ccccc12 (stereo not drawn)", "mL/min/kg", 62),
    ("COCCCN1CCC(NC(=O)c2cc(Cl)c(N)c3c2OCC3)CC1 [PRUCALOPRIDE]", "mL/min/kg", 113),
    ("OC1(CN2CCC(COc3noc4cccc(O[C@@H]5CCOC5)c34)CC2)CCOCC1 [PF-04995274]", "mL/min/kg", 29),
]
